target: recombinant human MASP2 active protease (amino acids 297-686, C-terminal His Tag) (human, UniProt O00187 297-686); experiment: cell-based or functional assay
Sequence (O00187 other isoform, or with tags, fused parts or gaps limits assumed): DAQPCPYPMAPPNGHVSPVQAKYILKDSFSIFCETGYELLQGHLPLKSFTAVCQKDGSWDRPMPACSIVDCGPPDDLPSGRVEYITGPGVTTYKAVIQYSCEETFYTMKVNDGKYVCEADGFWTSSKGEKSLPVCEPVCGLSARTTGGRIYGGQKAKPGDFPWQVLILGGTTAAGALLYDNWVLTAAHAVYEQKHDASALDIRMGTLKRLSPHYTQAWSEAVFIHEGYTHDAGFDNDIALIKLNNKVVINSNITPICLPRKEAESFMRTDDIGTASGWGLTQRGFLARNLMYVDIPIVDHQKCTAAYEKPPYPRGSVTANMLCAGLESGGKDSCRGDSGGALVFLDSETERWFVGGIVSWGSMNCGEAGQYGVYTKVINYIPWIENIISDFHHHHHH
Numbered stars: 1 amine (or outer) side, 2 acyl side, 3 side chain; on linkers, the order of the positions; unused ones are H or OH. Bridge positions count the residues as written; N and C are the ends. Square brackets hold non-standard residues; d marks the D form. Primed or numbered codes have the meaning given here. Ends that are not written are not given here. * marks the point of attachment. Tranexamic″ = tranexamic acid, NC[C@H]1CC[C@@H](C(=O)*)CC1; NH(CH2CH2O)5CH2CO = O=C(COCCOCCOCCOCCOCCN[*:1])[*:2]; Oic = O=C(O)[C@@H]1C[C@@H]2CCCC[C@@H]2N1; PEG6 = NCCOCCOCCOCCOCCOCCOCCC(=O)O; tBuAla = CC(C)(C)C[C@H](N)C(=O)O; Pen = CC(C)(S)[C@H](N)C(=O)O; Orn = NCCC[C@H](N)C(=O)O; Sar = CNCC(=O)O
So I've got a bunch of binders here, and I need their human MASP2 IC50 values.
Answers are plain numbers, in nM.

binder	endpoint result
[Sar][Orn][Orn][Orn]ICSRS[tBuAla]PPI[Pen]IP-NH2 (disulfide 6-14; N-terminus assumed; SMILES CC[C@H](C)[C@H](NC(=O)[C@H](CCCN)NC(=O)[C@H](CCCN)NC(=O)[C@H](CCCN)NC(=O)CNC)C(=O)N[C@H]1CSSC(C)(C)[C@@H](C(=O)N[C@H](C(=O)N2CCC[C@H]2C(N)=O)[C@@H](C)CC)NC(=O)[C@H]([C@@H](C)CC)NC(=O)[C@@H]2CCCN2C(=O)[C@@H]2CCCN2C(=O)[C@H](CC(C)(C)C)NC(=O)[C@H](CO)NC(=O)[C@H](CCCNC(=N)N)NC(=O)[C@H](CO)NC1=O) [Example 381: ((N-Me)G)-(Orn)-(Orn)-(Orn)-IC+SRS-((tBu)A)-PPI-(Pen)+IP-NH2]	550
ICSRSLP[Oic]I[Pen]IPQ-OH (disulfide 2-10; N-terminus assumed; SMILES CC[C@H](C)[C@H](N)C(=O)N[C@H]1CSSC(C)(C)[C@@H](C(=O)N[C@H](C(=O)N2CCC[C@H]2C(=O)N[C@@H](CCC(N)=O)C(=O)O)[C@@H](C)CC)NC(=O)[C@H]([C@@H](C)CC)NC(=O)[C@@H]2C[C@@H]3CCCC[C@@H]3N2C(=O)[C@@H]2CCCN2C(=O)[C@H](CC(C)C)NC(=O)[C@H](CO)NC(=O)[C@H](CCCNC(=N)N)NC(=O)[C@H](CO)NC1=O) [Example 388: IC+SRSLP-(Oic)-I-(Pen)+IPQ-OH]	750
{Tranexamic″}-ICSRS[tBuAla]PPI[Pen]IP-{NH(CH2CH2O)5CH2CO-NH2} (disulfide 2-10; SMILES CC[C@H](C)[C@@H]1NC(=O)[C@@H]2CCCN2C(=O)[C@@H]2CCCN2C(=O)[C@H](CC(C)(C)C)NC(=O)[C@H](CO)NC(=O)[C@H](CCCNC(=N)N)NC(=O)[C@H](CO)NC(=O)[C@@H](NC(=O)[C@@H](NC(=O)[C@H]2CC[C@@H](CN)CC2)[C@@H](C)CC)CSSC(C)(C)[C@@H](C(=O)N[C@H](C(=O)N2CCC[C@H]2C(=O)NCCOCCOCCOCCOCCOCC(N)=O)[C@@H](C)CC)NC1=O) [Example 424: (Tranexamic)-IC+SRS-((tBu)A)-PPI-(Pen)+IP-(PEG5-CH2CO2H (18 atoms))-NH2]	11

API: the following record is the query input.
Query :: Please give the measured human MASP2 IC50 for this binder: {Tranexamic″}-ICSRS[tBuAla]PPI[Pen]IP-{PEG6-NH2} (disulfide 2-10; SMILES CC[C@H](C)[C@@H]1NC(=O)[C@@H]2CCCN2C(=O)[C@@H]2CCCN2C(=O)[C@H](CC(C)(C)C)NC(=O)[C@H](CO)NC(=O)[C@H](CCCNC(=N)N)NC(=O)[C@H](CO)NC(=O)[C@@H](NC(=O)[C@@H](NC(=O)[C@H]2CC[C@@H](CN)CC2)[C@@H](C)CC)CSSC(C)(C)[C@@H](C(=O)N[C@H](C(=O)N2CCC[C@H]2C(=O)NCCOCCOCCOCCOCCOCCOCCC(N)=O)[C@@H](C)CC)NC1=O) [Example 425: (Tranexamic)-IC+SRS-((tBu)A)-PPI-(Pen)+IP-(PEG5(22 atoms))-NH2]
Result :: 13
